Just for reference, patent US20190359693A1 is where these values come from.

- target-of-assay: hemagglutinin (HA) of influenza virus H7N3 A/NIBRG/60 (A/mallard/Netherlands/12/00) (influenza A virus)
- test-summary: cell-based or functional assay

{"columns": ["binder", "average neutralization titer, nM"],
 "data": [
  ["MD2317 (bispecific antibody) EVQLVESGGGLVQPGGSLRLSCAVSISIFDIYAMDWYRQAPGKQRDLVATSFRDGSTNYADSVKGRFTISRDNAKNTLYLQMNSLKPEDTAVYLCHVSLYRDPLGVAGGMGVYWGKGALVTVSSGGGGSGGGGSEVQLVESGGGLVQAGDSLRISCAASGRTLSIYSMGWFRQAPGKEREFVATIGWNSGRTFYPDSLKGRFTISRDNARNTLYLQMNNLRPEDTAVYYCAAAKGPLRLSSQADYWGQGTQVTVSSGGGGSGGGGSEVQLVESGGGLVQPGGSLRLSCAATGFTLENKAIGWFRQTPGSEREGVLCISKSGSWTYYTDSMRGRFTISRDNAENTVYLQMDSLKPEDTAVYYCATTTAGGGLCWDGTTFSRLASSWGQGTQVTVSS", 12.8],
  ["MD2307 (bispecific antibody) EVQLVESGGGLVQPGGSLRLSCAATGFTLENKAIGWFRQTPGSEREGVLCISKSGSWTYYTDSMRGRFTISRDNAENTVYLQMDSLKPEDTAVYYCATTTAGGGLCWDGTTFSRLASSWGQGTQVTVSSGGGGSGGGGSEVQLVESGGGLVQAGDSLRISCAASGRTLSIYSMGWFRQAPGKEREFVATIGWNSGRTFYPDSLKGRFTISRDNARNTLYLQMNNLRPEDTAVYYCAAAKGPLRLSSQADYWGQGTQVTVSSGGGGSGGGGSEVQLVESGGGLVQAGDSLRLSCAASGPTFGMSAMGWFRQAPGKEREFVAAISGLGNPNYSDDVKGRFTISRENGRNTVYLQMNSLKPEDTAVYYCAQRKVYHVQGGDRPQAYDYWGQGTQVTVSS", 18.1],
  ["MD2308 (bispecific antibody) EVQLVESGGGLVQAGDSLRISCAASGRTLSIYSMGWFRQAPGKEREFVATIGWNSGRTFYPDSLKGRFTISRDNARNTLYLQMNNLRPEDTAVYYCAAAKGPLRLSSQADYWGQGTQVTVSSGGGGSGGGGSEVQLVESGGGLVQPGGSLRLSCAATGFTLENKAIGWFRQTPGSEREGVLCISKSGSWTYYTDSMRGRFTISRDNAENTVYLQMDSLKPEDTAVYYCATTTAGGGLCWDGTTFSRLASSWGQGTQVTVSSGGGGSGGGGSEVQLVESGGGLVQAGDSLRLSCAASGPTFGMSAMGWFRQAPGKEREFVAAISGLGNPNYSDDVKGRFTISRENGRNTVYLQMNSLKPEDTAVYYCAQRKVYHVQGGDRPQAYDYWGQGTQVTVSS", 12.8]
]}
